Assay: wearing study, E2 plasma levels in postmenopausal female subjects
Assay type: in vivo, postmenopausal female subjects (human)
Conditions: human, plasma, topical or ocular; Example 3, 20 cm^2 laminate, four day wearing, postmenopausal females; read-out: constant plasma levels
endpoint label: concentration at 96 h

Task: concentration at 96 h lookup needed for C[C@]12CC[C@@H]3c4ccc(O)cc4CC[C@H]3[C@@H]1CC[C@@H]2O [Example E2, estradiol] , thanks.
Output: ~0.025 ng/mL

---

Experiment: wearing study, E2 plasma levels in postmenopausal female subjects
Format: in vivo, postmenopausal female subjects (human)
Conditions: human, plasma, topical or ocular; Example 5, 20 cm^2 laminate, 7 day wearing, postmenopausal females; read-out: constant plasma concentration of E2
endpoint label: concentration at 168 h

Task: Fill in the blank: the reported concentration at 168 h of C[C@]12CC[C@@H]3c4ccc(O)cc4CC[C@H]3[C@@H]1CC[C@@H]2O [Example E2, estradiol] is ____.
Output: ~0.03 ng/mL

Values from patent US5006342A
